# Test method notes: AUC (0 to 8 hrs) in BALB/c mouse at 30 mg/kg, po administered as single dose
# Assay type: ADME, organism-based
# Set-up: time < 8 hr, dose 30 mg/kg, route oral
# Details: plasma
Measure name: AUC(0-t) at 8 h (ng·h/mL)
Provide only the numeric value, understood in ng·h/mL.

Look up AUC(0-t) at 8 h: C1=N/C2=N/c3ccc(OCCN4CCCC4)c(c3)COC/C=C/COCc3cccc(c3)C(=C1)N2 (mixture of isomers) [PACRITINIB]
399

---

# Assayed system: Non-receptor tyrosine-protein kinase TYK2 (Homo sapiens, UniProt P29597)
# Sequence (P29597 whole entry): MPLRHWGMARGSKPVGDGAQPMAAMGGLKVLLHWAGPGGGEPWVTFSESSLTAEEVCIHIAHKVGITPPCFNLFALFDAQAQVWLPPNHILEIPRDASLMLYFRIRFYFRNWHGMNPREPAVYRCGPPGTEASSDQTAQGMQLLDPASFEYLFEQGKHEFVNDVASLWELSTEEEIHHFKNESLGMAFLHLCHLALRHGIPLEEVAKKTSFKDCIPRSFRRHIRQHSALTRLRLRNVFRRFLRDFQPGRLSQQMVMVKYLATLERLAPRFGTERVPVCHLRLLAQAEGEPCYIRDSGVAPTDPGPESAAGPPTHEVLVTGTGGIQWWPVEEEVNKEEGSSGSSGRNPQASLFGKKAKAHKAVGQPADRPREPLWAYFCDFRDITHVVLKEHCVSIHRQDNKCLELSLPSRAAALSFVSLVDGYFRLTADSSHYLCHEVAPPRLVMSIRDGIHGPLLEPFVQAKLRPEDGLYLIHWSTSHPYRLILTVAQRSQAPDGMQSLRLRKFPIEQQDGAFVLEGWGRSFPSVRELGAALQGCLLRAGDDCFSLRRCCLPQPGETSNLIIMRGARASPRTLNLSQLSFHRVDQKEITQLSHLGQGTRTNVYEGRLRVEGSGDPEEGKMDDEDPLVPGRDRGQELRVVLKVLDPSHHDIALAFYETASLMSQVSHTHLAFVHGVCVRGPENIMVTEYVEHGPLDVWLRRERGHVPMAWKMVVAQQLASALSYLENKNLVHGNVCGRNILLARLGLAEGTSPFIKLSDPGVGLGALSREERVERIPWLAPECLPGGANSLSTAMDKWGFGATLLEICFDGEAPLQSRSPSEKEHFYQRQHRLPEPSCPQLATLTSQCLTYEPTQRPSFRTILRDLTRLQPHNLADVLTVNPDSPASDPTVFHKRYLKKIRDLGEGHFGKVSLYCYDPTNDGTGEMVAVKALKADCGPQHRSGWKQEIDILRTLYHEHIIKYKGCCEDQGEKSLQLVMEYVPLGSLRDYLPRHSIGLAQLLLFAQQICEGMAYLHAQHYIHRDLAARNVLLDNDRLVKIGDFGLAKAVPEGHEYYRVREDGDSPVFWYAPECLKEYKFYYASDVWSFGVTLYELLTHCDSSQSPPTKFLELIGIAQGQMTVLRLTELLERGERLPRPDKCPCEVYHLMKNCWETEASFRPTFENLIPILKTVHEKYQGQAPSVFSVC
# Test method notes: Inhibition of recombinant TYK2
Measure name: pIC50
Scale: pIC50 equals -log10([C]), with [C] in mol/L.

# value lookup — system Non-receptor tyrosine-protein kinase TYK2 (Homo sapiens, UniProt P29597), readout pIC50, item C1=CCOCc2cccc(c2)-c2ccnc(n2)Nc2cc(cc(OCCN3CCCC3)c2)COC1 (mixture of isomers)
7.10

What is its pIC50 for Non-receptor tyrosine-protein kinase TYK2 (Homo sapiens, UniProt P29597)? Entry: C1=CCOCc2cccc(c2)-c2ccnc(n2)Nc2cc(cc(OCCN3CCOCC3)c2)COC1 (mixture of isomers)
7.09

Missing value: pIC50, Non-receptor tyrosine-protein kinase TYK2 (Homo sapiens, UniProt P29597), entry Fc1cc2cc(c1)-c1ccnc(n1)Nc1ccc(OCCN3CCCC3)c(c1)COCC=CCOC2 (mixture of isomers) . Fill in?
7.44

Lookup: pIC50 / Non-receptor tyrosine-protein kinase TYK2 (Homo sapiens, UniProt P29597) / `C1=CCCOc2cccc(c2)-c2ccnc(n2)Nc2cccc(c2)OCC1`
5.28

What value of pIC50 on Non-receptor tyrosine-protein kinase TYK2 (Homo sapiens, UniProt P29597) does C1=N/C2=N/c3ccc(OCCN4CCCC4)c(c3)COC/C=C/COCc3cccc(c3)C(=C1)N2 (mixture of isomers) have?
7.30

Give Non-receptor tyrosine-protein kinase TYK2 (Homo sapiens, UniProt P29597) pIC50 for COc1ccc2cc1COCC=CCCOc1cccc(c1)-c1ccnc(n1)N2 (mixture of isomers)
6.82

Param readout= pIC50; system= Non-receptor tyrosine-protein kinase TYK2 (Homo sapiens, UniProt P29597); entry= COc1ccc2cc1COCC=CCOc1cccc(c1)-c1ccnc(n1)N2 (mixture of isomers) ; returns value.
6.92

Look up pIC50 with Non-receptor tyrosine-protein kinase TYK2 (Homo sapiens, UniProt P29597) for this molecule: COc1ccc2cc1COCC=CCOCc1cc(ccc1OCCN1CCCC1)Nc1nccc-2n1 (mixture of isomers)
6.74

---

# reported IC50; entries follow
# Assayed system: Tyrosine-protein kinase JAK3 (Homo sapiens, UniProt P52333)
# Sequence (P52333 whole entry): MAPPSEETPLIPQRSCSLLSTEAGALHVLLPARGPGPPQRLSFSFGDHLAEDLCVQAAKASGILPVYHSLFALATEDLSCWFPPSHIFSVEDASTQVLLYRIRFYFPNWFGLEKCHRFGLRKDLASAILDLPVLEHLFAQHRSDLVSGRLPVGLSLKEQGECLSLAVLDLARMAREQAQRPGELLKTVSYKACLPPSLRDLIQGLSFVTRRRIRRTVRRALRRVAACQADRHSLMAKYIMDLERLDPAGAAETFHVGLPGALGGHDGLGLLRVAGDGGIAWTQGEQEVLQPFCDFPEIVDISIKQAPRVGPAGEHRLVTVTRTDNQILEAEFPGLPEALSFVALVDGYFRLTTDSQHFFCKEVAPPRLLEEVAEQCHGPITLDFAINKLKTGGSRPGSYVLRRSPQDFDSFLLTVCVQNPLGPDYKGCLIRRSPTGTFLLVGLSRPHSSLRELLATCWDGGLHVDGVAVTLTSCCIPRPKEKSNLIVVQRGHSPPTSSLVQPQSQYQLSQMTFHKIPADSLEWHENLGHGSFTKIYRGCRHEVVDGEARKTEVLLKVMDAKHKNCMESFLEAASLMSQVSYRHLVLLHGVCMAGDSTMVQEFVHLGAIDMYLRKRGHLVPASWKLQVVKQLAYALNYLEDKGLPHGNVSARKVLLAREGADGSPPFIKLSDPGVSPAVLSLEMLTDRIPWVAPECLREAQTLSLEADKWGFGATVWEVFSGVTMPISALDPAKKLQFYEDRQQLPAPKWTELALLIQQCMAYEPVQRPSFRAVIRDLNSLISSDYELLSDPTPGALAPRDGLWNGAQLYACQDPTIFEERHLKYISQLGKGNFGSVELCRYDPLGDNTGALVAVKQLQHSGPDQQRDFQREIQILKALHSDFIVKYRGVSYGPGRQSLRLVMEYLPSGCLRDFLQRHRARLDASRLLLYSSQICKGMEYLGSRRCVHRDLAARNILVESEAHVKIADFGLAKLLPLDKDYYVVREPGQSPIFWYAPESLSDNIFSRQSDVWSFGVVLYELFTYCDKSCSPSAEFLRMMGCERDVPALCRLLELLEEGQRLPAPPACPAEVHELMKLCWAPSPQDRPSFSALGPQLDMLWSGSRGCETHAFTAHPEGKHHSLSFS
# Test method notes: Inhibition of recombinant JAK3 using Poly (Glu,Ala,Tyr) as substrate after 2 hrs by luminescence assay

Reference set, count: 5
| Compound | Observed measurement |
| --- | --- |
| COc1ccc2cc1COCC=CCOCc1cc(ccc1OCCN1CCCC1)Nc1nccc-2n1 (mixture of isomers) | 0.89 µM |
| Oc1ccc2cc1COCC=CCOCc1cccc(c1)-c1ccnc(n1)N2 (mixture of isomers) | 1.1 µM |
| O=C1CCN(CCOc2ccc3cc2COCC=CCOCc2cccc(c2)-c2ccnc(n2)N3)C1 (mixture of isomers) | 0.38 µM |
| Fc1ccc2cc1COCC=CCOCc1cc(ccc1OCCN1CCCC1)Nc1nccc-2n1 (mixture of isomers) | 0.72 µM |
| ClCCOc1ccc2cc1COCC=CCOCc1cccc(c1)-c1ccnc(n1)N2 (mixture of isomers) | > 10 µM |

Would you kindly share the measured IC50 for C1=CCOCc2cc(ccc2OCCN2CCCCC2)Nc2nccc(n2)-c2cccc(c2)COC1 (mixture of isomers) ?
0.75 µM

Entry CCN(CC)CCOc1ccc2cc1COCC=CCOCc1cccc(c1)-c1ccnc(n1)N2 (mixture of isomers) : reported IC50 = ?
0.62 µM

# IC50 lookup, item COc1ccc2cc1COCC=CCOCc1cccc(c1)-c1ccnc(n1)N2 (mixture of isomers)
1.2 µM
